The reported measurements were obtained from patent US11925624B2.

- ASSAY OVERVIEW: Phase 1 single ascending dose (Part A) pharmacokinetics, fasted state
- Assay type: in vivo, human
- CONDITIONS USED: human, plasma, oral, 1600 mg single dose (A6)
READOUT TYPE: Cmax (ng/mL)
// note: answer is a bare numeric in ng/mL

Determine from records and report Cmax for Cn1cc(-c2cn(-c3ccc(OC(F)(F)F)cc3)c(=O)c3ncn(C)c23)cn1 5580

* * *

- ASSAY OVERVIEW: Phase 1 multiple ascending dose (Part B) pharmacokinetics after low-fat meal
- Type: in vivo, human
- CONDITIONS USED: human, urine and plasma, oral, 275 mg, 275 mg BID (B3), Day 1, low-fat meal
READOUT TYPE: CL renal

Provide measured CL renal value, entry: Cn1cc(-c2cn(-c3ccc(OC(F)(F)F)cc3)c(=O)c3ncn(C)c23)cn1 71.6 mL/min
